System: DLD1
Assay: cell viability (CellTiter-Glo) relative to plate median (fraction of plate median); higher = more viable cells
Conditions: 5 µM; treatment time 24 h; reporter: 7TFP
Readout kind: cell viability
Give bare numbers.

Dear colleague, could you please provide cell viability for the molecules listed below?
1. CNCCC=C1c2ccccc2CCc2ccccc21
2. CC(=O)O[C@@H]1C=C[C@]2(C)C(C[C@@H](OC(C)=O)[C@]3(C)C4=CC(=O)O[C@H](c5ccoc5)[C@@]4(C)CCC23)C1(C)C (stereo partly drawn)

a:
[0.959, 1.06]

----------
Test system: DLD1
Experiment: TCF/Wnt firefly luciferase reporter signal relative to plate median (fraction of plate median); higher = higher Wnt reporter signal
Settings: 5 µM; treatment time 24 h; reporter: 7TFP
Readout kind: TCF/Wnt firefly luciferase reporter signal
Answers are plain numbers.

Consider the following illustrative entries.
CC(C)C[C@@H]1NC(=O)[C@H](C)NC1=O :: 0.994
COc1ccc(CCC(=O)c2c(O)cc(O[C@@H]3O[C@H](CO)[C@@H](O)[C@H](O)[C@H]3O[C@@H]3O[C@@H](C)[C@H](O)[C@@H](O)[C@H]3O)cc2O)cc1O :: 0.945
CC(=O)O[C@@H]1CC[C@@]2(C)C(C[C@@H](OC(C)=O)[C@@]3(C)C4=CC(=O)O[C@@H](c5ccoc5)[C@]4(C)CCC23)C1(C)C (stereo partly drawn) [3alpha-ACETOXYDIHYDRODEOXYGEDUNIN] :: 1.25

Dear colleague, could you please provide TCF/Wnt firefly luciferase reporter signal for the compounds listed below?
1. Nc1ncnc2c1ncn2[C@H]1C[C@H](O)[C@@H](CO)O1
2. COc1ccc2cc([C@H](C)CO)ccc2c1
3. O=c1cc(-c2cccc(O)c2)oc2ccc(O)cc12
4. C/C=C/C=C/C1C=CC2CC(C)CCC2C1(C)/C(O)=C1/C(=O)NC(C(C)O)C1=O (centres undefined)
5. O=C1CCC(N2C(=O)c3ccccc3C2=O)C(=O)N1 (centres undefined)
6. C1CNCCN1

a:
[1.05, 1.11, 1.19, 1, 1.23, 1.25]
